src = ChEMBL document CHEMBL1133204

# test.name: Half life of hydrolysis of compound at pH 7.4, 37 degree C
# Type: ADME
# reported.conditions: buffer

| compound | half-life, h |
| --- | --- |
| COC1=C(C(=O)[O-])N2C(=O)[C@H]([C@@H](C)O)[C@H]2C1.[K+] | 5.75 |
| COC1=C(C(=O)[O-])N2C(=O)[C@H]([C@@H](C)O)C2[C@@H]1C.[K+] (stereo partly drawn) | 3.25 |
| COC1=C(C(=O)[O-])N2C(=O)[C@H]([C@@H](C)O)C2[C@H]1C.[K+] (stereo partly drawn) | 72 |
